target: M1 (linear) GST-Ub2 (UniProt P0CG48); assay: BLI
Measurement label: pKd
The value called pKd is obtained by taking minus log10 of the concentration in mol/L.

Lookup: Any idea what its pKd is? The binder is ESLVECPKCNIQYPATEHRDLLVHVEYCSK [Strep-tag II CEP55 ZF (StrepII-tag version of CEP55 ZF peptide, residues 435–464)]
Found: 5.80
